Assay: CD spectroscopy, helicity;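 on % of helicity induced by TFE: share of the total helicity in TFE gained over the same peptide in PBS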
Format: physicochemical
Conditions: increase in molar ellipticity at 222 nm in the presence of 50% TFE
Where no end group is shown, it is not given here.
So I've got a bunch of substances here, and I need their % of helicity induced by TFE values.
Express the result in % but write the number alone.

Problem: I am curious: what % of helicity induced by TFE value has been reported for Ac-KWLKKWLKWWKK-NH2 [8d] ?
Result: 39.00

Problem: Then what about the substance KWLKKWLKWWKK-NH2 [8b] ?
Result: 59.79

Problem: Same thing, different substance: RWLRRWLRWWR-NH2 [5d]
Result: 59.60

Problem: Continue with Ac-RWARRWARWWRR-NH2 [6c]
Result: 40.11

Problem: Record: Ac-RWLRRWLRWWRR-NH2 [8c]
Result: 40.49

====

Assay: CD spectroscopy, helicity;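 on % of helicity induced by Liposomes: share of the total helicity with liposomes gained over the same peptide in PBS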
Type: physicochemical
Conditions: increase in molar ellipticity at 222 nm in the presence of liposomes
Where no end group is shown, it is not given here.
Answer each item with its documented % of helicity induced by Liposomes.
The number alone won't do; follow it with the unit.

Problem: Requested field: % of helicity induced by Liposomes. Item: Ac-KWLKKWLKWWKK-NH2 [8d]
Result: 58.75%

Problem: Next entry: RWARRWARWWRR-NH2 [6a]
Result: 49.13%

Problem: Same read-out for KWAKKWWKWWKK-NH2 [6e] ?
Result: 39.55%

Problem: Thanks! And Ac-KWAKKWAKWWKK-NH2 [6d] ?
Result: 44.53%

Problem: And RWIRRWIRWWRR-NH2 [7a] ?
Result: 78.14%

Problem: Now try RWWRRAWAR-NH2 [3e] .
Result: 17.53%

Problem: // next record Ac-RWARRWARWWRR-NH2 [6c]
Result: 45.93%

Problem: Please give the result for KWAKKWAKWWKK-NH2 [6b] too.
Result: 63.33%

Problem: Likewise for RWLRRWLRWWRR-NH2 [8a] ?
Result: 69.30%

====

System: human red blood cells (hRBCs)
Test: Hemolytic assay
Format: cell-based
Conditions: value in parentheses (μM); hRBC 4% in PBS, 2 h, 37 °C, 567 nm
Where no end group is shown, it is not given here.
Readout Label: HC50 (concentration at which 50% hemolysis was observed)

Problem: I'd like to know its HC50 (concentration at which 50% hemolysis was observed). The substance in question is RWARRWWR-NH2 [2c]
Result: > 393.23 µM

Problem: And what about the substance RAWRRWWRAA-NH2 [4b] ?
Result: > 353.69 µM

Problem: Please do the same for RWWRAAWRR-NH2 [3d] as well.
Result: > 372.42 µM

Problem: Request: RRWWRRW-NH2 [1b]
Result: > 416.52 µM

Problem: Moving on to WRRWARRW-NH2 [2d]
Result: > 393.23 µM

Problem: Entry RWWRRAWRA-NH2 [3a] please
Result: > 372.42 µM

Problem: How about RWARRWWRA-NH2 [3c] ?
Result: > 372.42 µM

Problem: Also RWWRRAWAR-NH2 [3e] , if possible.
Result: > 372.42 µM

Problem: Same thing, different substance: H-RWWRRWR-NH2 [1e]
Result: > 416.52 µM

====

Test system: K. pneumoniae (ATCCBAA-1705)
Assay: MIC, standard microtiter dilution (CLSI)
Assay type: cell-based, Klebsiella pneumoniae
Details: value in parentheses (μM); broth microdilution (CLSI), CAMHB, 37 °C, 24 h
Where no end group is shown, it is not given here.
Readout Label: MIC, K. pneumoniae (ATCCBAA-1705)

Problem: Give the measured MIC, K. pneumoniae (ATCCBAA-1705) of H-AAWRRWWRRA-NH2 [4h] .
Result: > 70.74 µM

Problem: Input RWWRAAWRR-NH2 [3d]
Result: > 74.48 µM

Problem: Follow-up entry: RWARRWWRA-NH2 [3c]
Result: > 74.48 µM

Problem: // query: H-RWWRRWR-NH2 [1e]
Result: > 83.30 µM

Problem: Next up: RWARRWARWWRR-NH2 [6a]
Result: > 54.31 µM

Problem: What do you get for RWIRRWIRWWRR-NH2 [7a] ?
Result: 6.49 µM

Problem: Then what about the substance RAWRRWWRAA-NH2 [4b] ?
Result: > 70.74 µM

====

Test system: human red blood cells (hRBCs)
Assay: Hemolytic assay
Type: cell-based
Conditions: value in parentheses (μM); hRBC 4% in PBS, 2 h, 37 °C, 567 nm
Where no end group is shown, it is not given here.
Assign HC50 (concentration at which 50% hemolysis was observed) to each entry below.
I only need the number, in µM, no unit after it.

Problem: Field request: HC50 (concentration at which 50% hemolysis was observed) | item: Ac-RWIRRWIRWWR-NH2 [5e]
Result: 33.13

Problem: Then what about the substance RWLRRWLRWWRR-NH2 [8a] ?
Result: 23.37

Problem: Query RWLRRWLRWWR-NH2 [5d] next
Result: 73.48

Problem: Now give it for Ac-RWIRRWIRWWRR-NH2 [7c] too.
Result: 20.33

====

Experiment: CD spectroscopy, helicity
Format: physicochemical
Set-up: key: mean residue molar ellipticity, mdeg cm2/(dmol × res)
Conditions: difference to PBS; 50% TFE
Where no end group is shown, it is not given here.
In plain terms, low Δ[θ]222 induced by TFE, meaning strictly below -6000, gives Satisfied, and everything else gives Not satisfied.

Problem: Here's an entry: WRRWWRR-NH2 [1c] . Is its Δ[θ]222 induced by TFE below -6000?
Result: Not satisfied

Problem: Queued: Ac-KWLKKWLKWWKK-NH2 [8d]
Result: Satisfied

Problem: Now the substance RWWRRWAR-NH2 [2a]
Result: Not satisfied

Problem: Here is the next substance: Ac-RWLRRWLRWWRR-NH2 [8c]
Result: Not satisfied

Problem: Now give it for KWAKKWAKWWKK-NH2 [6b] too.
Result: Satisfied

Problem: Please give the result for KWLKKWWKWWKK-NH2 [8e] too.
Result: Not satisfied

Problem: And for Ac-RWIRRWIRWWRR-NH2 [7c] ?
Result: Satisfied

====

Test system: K. pneumoniae (ATCCBAA-1705)
Test: MIC, standard microtiter dilution (CLSI)
Type: cell-based, Klebsiella pneumoniae
Settings: value in parentheses (μM); broth microdilution (CLSI), CAMHB, 37 °C, 24 h
Where no end group is shown, it is not given here.
Answer each item with its documented MIC, K. pneumoniae (ATCCBAA-1705).

Problem: Recall the recorded MIC, K. pneumoniae (ATCCBAA-1705) for RRWWRRW-NH2 [1b] with K. pneumoniae (ATCCBAA-1705) and state it.
Result: > 83.30 µM

Problem: Please do the same for RWWRRWAR-NH2 [2a] as well.
Result: > 78.65 µM

Problem: # repeat for WRRWARRW-NH2 [2d]
Result: > 78.65 µM

Problem: Ok, now RAARRWARWWR-NH2 [5a]
Result: > 63.70 µM

Problem: Input WRRWWRR-NH2 [1c]
Result: > 83.30 µM

Problem: Now consider RWARRWWR-NH2 [2c] and answer again.
Result: > 78.65 µM

Problem: Check RWRRWWR-NH2 [1a] too.
Result: > 83.30 µM

Problem: Further, for RRWRRWW-NH2 [1d] ?
Result: > 83.30 µM

Problem: And then AWWRRAWRR-NH2 [3f] , what is it?
Result: > 74.48 µM

====

Assay: CD spectroscopy, helicity
Format: physicochemical
Conditions: CD at 222 nm, 25 °C, aqueous buffer containing 50% TFE
Where no end group is shown, it is not given here.
Readout Label: [θ]222 mean residue molar ellipticity, TFE

Problem: # get_value(readout='[θ]222 mean residue molar ellipticity, TFE', item= RWIRRWIRWWRR-NH2 [7a] )
Result: -8205 mdeg cm2/(dmol × res)

Problem: Now give it for Ac-KWAKKWAKWWKK-NH2 [6d] too.
Result: -18432 mdeg cm2/(dmol × res)

Problem: Ac-RWLRRWLRWWRR-NH2 [8c] ?
Result: -13735 mdeg cm2/(dmol × res)

Problem: Now give it for RWARRWARWWRR-NH2 [6a] too.
Result: -13346 mdeg cm2/(dmol × res)

Problem: Entry to check: RWLRRWLRWWRR-NH2 [8a]
Result: -10811 mdeg cm2/(dmol × res)

Problem: What about this substance? RAWRAWWRRA-NH2 [4f]
Result: -7441 mdeg cm2/(dmol × res)

Problem: Next substance: Ac-RWARRWARWWRR-NH2 [6c]
Result: -18280 mdeg cm2/(dmol × res)

Problem: Field entry: WRRWWRR-NH2 [1c]
Result: -4646 mdeg cm2/(dmol × res)

Problem: Can you check KWIKKWIKWWKK-NH2 [7b] next?
Result: -10800 mdeg cm2/(dmol × res)

Problem: Input Ac-RWIRRWIRWWRR-NH2 [7c]
Result: -10279 mdeg cm2/(dmol × res)

Problem: And the next one, KWAKKWWKWWKK-NH2 [6e] ?
Result: -18419 mdeg cm2/(dmol × res)

Problem: Try Ac-KWLKKWLKWWKK-NH2 [8d] next.
Result: -16759 mdeg cm2/(dmol × res)

Problem: RWWRRAWAR-NH2 [3e] , same question.
Result: -8008 mdeg cm2/(dmol × res)

Problem: KWAKKWAKWWKK-NH2 [6b] ?
Result: -14689 mdeg cm2/(dmol × res)
